# Tested on: HBV
# experiment: Anti-HBV activity: intracellular HBV DNA by real-time PCR in HepG2.117 cell line
# Format: cell-based, Hepatitis B virus
# cond: Hepatitis B virus, HepG2.117, 72 h, read-out: HBV-AVE-HepG2.117 EC50 (μM, mean value)
metric: EC50 (µM)

sampleSmiles | metric | val
C[C@@H]1Cc2nn3c(c2CN1C(=O)c1ccc(Cl)c(Cl)c1)C(=O)N([C@@H](C)c1nc[nH]n1)CC3 | EC50 | 1.5
C[C@@H]1Cc2nn3c(c2CN1C(=O)c1ccc(Cl)c(Cl)c1)C(=O)N(Cc1ccncc1)CC3 | EC50 | 0.436
O=C(c1ccc(Cl)c(Cl)c1)N1CCc2nn3c(c2C1)C(=O)N(Cc1ccccc1)CC3 | EC50 | 0.188
CC(C)CN1CCCn2nc3c(c2C1=O)CN(C(=O)c1ccc(Cl)c(Cl)c1)[C@H](C)C3 | EC50 | 2.49

Data origin, for the record: patent US20220348592A1
